- system: human OT7T175 (metastin receptor) (human, UniProt Q969F8 1-398)
- Sequence (Q969F8 whole entry L364H): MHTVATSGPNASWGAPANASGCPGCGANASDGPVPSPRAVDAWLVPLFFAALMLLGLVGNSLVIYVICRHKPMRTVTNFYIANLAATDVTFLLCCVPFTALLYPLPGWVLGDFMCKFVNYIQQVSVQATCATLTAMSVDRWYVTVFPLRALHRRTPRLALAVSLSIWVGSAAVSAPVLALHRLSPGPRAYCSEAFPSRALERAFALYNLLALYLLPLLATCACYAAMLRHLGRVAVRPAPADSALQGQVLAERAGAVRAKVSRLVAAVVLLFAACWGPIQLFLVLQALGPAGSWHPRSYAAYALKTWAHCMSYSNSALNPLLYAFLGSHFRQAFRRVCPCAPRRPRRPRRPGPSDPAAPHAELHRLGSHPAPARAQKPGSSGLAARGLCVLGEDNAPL
- experiment.summary: cell-based or functional assay
measured.quantity: intracellular Ca ion level-increasing activity (FLIPR)

Please give the documented intracellular Ca ion level-increasing activity (FLIPR) of YNWNSXGLRF (Nal(1)6; C-terminal amide) [Compound No. 151: [Nal(1)6]MS10]
1 specific activity to metastin (1-54)
